Numbers sourced from paper PMC6220877.

Where a SMILES comes first, the peptide text is derived from it. [ ]: non-standard residue; d: D form. The star is where a group is joined. 2Thi = N[C@@H](Cc1cccs1)C(=O)O; Cha = N[C@@H](CC1CCCCC1)C(=O)O; X1 = CC(C)C[C@H](N*)c1nnn[nH]1; Tle = CC(C)(C)[C@H](N)C(=O)O; Pip = O=C(O)[C@@H]1CCCCN1; Thz = O=C(O)[C@@H]1CSCN1; NHIsopentyl = CC(C)CCN*; NHBn = c1ccc(CN*)cc1
Can you tell me pIC50 for the items I'm about to list?
The read-out pIC50 is expressed as -log10 of concentration in moles per litre.

Input: Give Keap1 Kelch domain (Homo sapiens) pIC50 for the following compound: CC(=O)N[C@@H](CC(=O)O)C(=O)N1CCCC[C@H]1C(=O)N[C@@H](CCC(=O)O)C(=O)N[C@H](C(=O)NCC(=O)N[C@@H](CCC(=O)O)C(=O)N[C@@H](CC(C)C)C(=O)O)[C@@H](C)O [compound 16, Ac‐Asp‐Pip‐Glu‐Thr‐Gly‐Glu‐Leu‐OH] (Ac-D[Pip]ETGEL-OH)
Output: 5.97

Input: Give Keap1 Kelch domain (Homo sapiens) pIC50 for the following compound: CC(=O)N[C@@H](CC(=O)O)C(=O)N1CCC[C@H]1C(=O)N[C@@H](CCC(=O)O)C(=O)N[C@H](C(=O)NCC(=O)N[C@@H](CCC(=O)O)C(=O)N[C@@H](CC(C)C)C(=O)NCCC(C)C)[C@@H](C)O [compound 6] (Ac-DPETGEL-NHIsopentyl)
Output: 6.13

Input: Give Keap1 Kelch domain (Homo sapiens) pIC50 for the following compound: CC(=O)N[C@@H](CC(=O)O)C(=O)N1CCC[C@H]1C(=O)N[C@@H](CCC(=O)O)C(=O)N[C@H](C(=O)NCC(=O)N[C@@H](CCC(=O)O)C(=O)N[C@@H](CC(C)C)c1nnn[nH]1)[C@@H](C)O [compound 8, Ac‐Asp‐Pro‐Glu‐Thr‐Gly‐Glu‐Leu‐TET] (Ac-DPETGE-X1)
Output: 6.43

Input: Give Keap1 Kelch domain (Homo sapiens) pIC50 for the following compound: CC(=O)N[C@@H](CC(=O)O)C(=O)N1CCC[C@H]1C(=O)N[C@@H](CCC(=O)O)C(=O)N[C@H](C(=O)NCC(=O)N[C@@H](CCC(=O)O)C(=O)N[C@@H](Cc1cccs1)C(=O)O)[C@@H](C)O [compound 10, Ac‐Asp‐Pro‐Glu‐Thr‐Gly‐Glu‐Thi‐OH] (Ac-DPETGE[2Thi]-OH)
Output: 6.24

Input: Give Keap1 Kelch domain (Homo sapiens) pIC50 for the following compound: CC(=O)N[C@@H](CC(=O)O)C(=O)N1CCC[C@H]1C(=O)N[C@@H](CCC(=O)O)C(=O)N[C@H](C(=O)NCC(=O)N[C@@H](CCC(=O)O)C(=O)N[C@H](C(=O)O)C(C)(C)C)[C@@H](C)O [compound 9, Ac‐Asp‐Pro‐Glu‐Thr‐Gly‐Glu‐Tle‐OH] (Ac-DPETGE[Tle]-OH)
Output: 6.63

Input: Give Keap1 Kelch domain (Homo sapiens) pIC50 for the following compound: CC(=O)N[C@@H](CC(=O)O)C(=O)N1CSC[C@H]1C(=O)N[C@@H](CCC(=O)O)C(=O)N[C@H](C(=O)NCC(=O)N[C@@H](CCC(=O)O)C(=O)N[C@@H](CC(C)C)C(=O)O)[C@@H](C)O [compound 15, Ac‐Asp‐Thp‐Glu‐Thr‐Gly‐Glu‐Leu‐OH] (Ac-D[Thz]ETGEL-OH)
Output: 7.05

Input: Give Keap1 Kelch domain (Homo sapiens) pIC50 for the following compound: CC(=O)N[C@@H](CC(=O)O)C(=O)N1CCC[C@H]1C(=O)N[C@@H](CCC(=O)O)C(=O)N[C@H](C(=O)NCC(=O)N[C@@H](CCC(=O)O)C(=O)N[C@@H](CC1CCCCC1)C(=O)O)[C@@H](C)O [compound 11, Ac‐Asp‐Pro‐Glu‐Thr‐Gly‐Glu‐Cha‐OH] (Ac-DPETGE[Cha]-OH)
Output: 7.07

Input: Give Keap1 Kelch domain (Homo sapiens) pIC50 for the following compound: CC(=O)N[C@@H](CC(=O)O)C(=O)N1CCC[C@H]1C(=O)N[C@@H](CCC(=O)O)C(=O)N[C@H](C(=O)NCC(=O)N[C@@H](CCC(=O)O)C(=O)N[C@@H](CC(C)C)C(=O)NCc1ccccc1)[C@@H](C)O [compound 7, Ac‐Asp‐Pro‐Glu‐Thr‐Gly‐Glu‐Leu‐NH‐Bn] (Ac-DPETGEL-NHBn)
Output: 6.05
